PROTOCOL: doxorubicin toxicity protection in MRP-1 cells – H69AR cells, CellTiter-Glo, duplicate, MRP-1 activator project, pilot screen (AID 807);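 also: compound pretreatment 18-22 h then 72 h combined with doxorubicin; 0% = doxorubicin alone and 100% = vehicle without doxorubicin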
REPORTED_CONDITIONS: H69AR viability with doxorubicin, CellTiter-Glo luminescence; at 10 µM; active compounds read high
MEASURED_METRIC: viability increase (%)
Just the number please, in %, no unit attached.

# lookup: viability increase of CC(C)n1c(=O)[nH]c2ccccc21
-4.28

Next: CCCCCn1c(=O)[nH]c2cc(C(=O)NCCCN3CCCCC3)ccc2c1=O
-2.74

Next: COC(=O)c1ccc(-c2nn(C)c(=O)c3ccccc23)cc1
-2.27

Next: CC(C)OC(=O)c1ccc(OC(=O)c2cccnc2)cc1
-2.98

Next: COC(=O)CN1C(=O)C(O)(CC(=O)c2cccc(Br)c2)c2ccccc21 (stereo unspecified)
-4.39

Next: CN1C(=O)c2cccc(NC(=O)CCc3ccccc3)c2C1=O
0.13

Next: O=C(Nc1cccc(Cl)c1)N1CCN(Cc2ccccc2)CC1
-1.11

Next: Cc1cc(NC(=O)c2cccc(S(=O)(=O)N3CC(c4ccccc4)CC3=O)c2)no1 (stereo unspecified)
1.83

Next: O=C(Nc1nnc(-c2ccc(Cl)cc2)o1)c1ccccc1Br
-3.81

Next: COc1cccc(C2C(C(N)=O)=C(C)Nc3nc(CCCO)nn32)c1OC (stereo unspecified)
-0.88

Next: Cn1cccc1Cc1nnc(SCC(=O)NCc2ccccc2)n1-c1ccc(F)cc1
-3.08

Data origin: PubChem BioAssay
